The reported numbers originate from the nanobody polyreactivity screen of Harvey et al. (2022).

- test: yeast display, Sf9 membrane polyspecificity reagent, FACS + sequencing; frameworks hold sequencing errors
experimental.readout: polyreactivity (PSR sort gate)

Take a look at these entries with their results.
macromolecule.sequence	polyreactivity (PSR sort gate)
QVQLVESGGGLVQAGGSLRLSCAASGSTLASYAMGWYRQAPGKERELVAAISLSGGSTYYADSVKGRFTISRDNAKNTVYLQMNSLKPEDTAVYYCAAETVRYEWGESPAALFDYWGQGTQVTVSS	low polyreactivity
QVQLVDSGGGLVQAGGSLRLICAASGSIFIDKAMGWYRQAPGKERELVAAISWSGGRTYYADSVKGRFTISRDNAKNTVYLQMNSLKPEDTAVYYCAVDFRHPYDYDYWGQGTQVTVSS	high polyreactivity
QVQLVESGGGLVQAGGSLRLSCAASGYIFDRNAMGWYRQAPGKERELLAAITKRGGITYYADSVKGRFTISRDNAKNTVYLQMNSLKPEDTAVYYCAADIGYYVYNDYDYWGQGTQVTVSS	low polyreactivity
QVQLVESGGGLFQAGGSLRLSCAASGSTLYEYAMGWYRQAPGKERELVAAINWSGGSTYYADSVKGRFTISRDNAKNTVYLQMNSLKPEDTAVYYCNRVKTGSTYRRRYWSMGYWGQGTQVTVSS	high polyreactivity

Next:
Q: State, in one line, measured polyreactivity (PSR sort gate) of QVQLVESGGGLVQAGGSLRLSCAPSGYIFQAYVMGWYRPAPGKERELVAAITSGGGTYYADSVKGRFTISRDNAKNTVYLQMISLKPEDTAVYYCAARYTQRPRRNYWGQGSQVTVSS
A: high polyreactivity
